Ref: patent US20020031761A1

# target_of_assay: T1, purified, recombinant parvovirus B19 capsid proteins VP1 and VP2 (VP1-VP2) (human parvovirus B19, UniProt P07299 1-781; P07299 1-554)
# T1 construct: Surrogate target: partially purified/purified recombinant VP1 + VP2 preparation; Made by methods of US 5,498,413 or WO 91/12269
# assay_details: phage ELISA, constant phage against decreasing VP1-VP2 coat; normalized signal interpolated at 1:10 dilution of VP1-VP2
Positions of bridges follow the written chain, without caps; N, C: chain ends. No end group written: not given here.
Exercise: state measured relative binding for each of the binders provided.
Form: value (number only, do not type unit).

Inquiry: So what's the measured relative binding for this one? FFCALWPSCHH (peptide, not shown: large carriers, disulfide 3-9 (inferred); also: displayed on M13 phage, coat protein fusion and flanking residues not given here, Tested as phage isolate displaying the peptide (TN7 library)) [TN7 isolate B11]
Reply text: 31

Inquiry: Next record, please: FCRFWYGCHP (peptide, not shown: large carriers, disulfide 2-8 (inferred); also: displayed on M13 phage, coat protein fusion and flanking residues not given here, Tested as phage isolate displaying the peptide (TN7 library); First template position printed as '-' (10 residues)) [TN7 isolate E11]
Reply text: 33
